Data origin, for the record: patent US20220273619A1

assay: Solubility at room temperature, manual dilution combined with visual observation; format: physicochemical; conditions: methanol; room temperature; read-out: Solubility
Where a SMILES comes first, the peptide text is derived from it. The star is where a group is joined. Palmitoyl = CCCCCCCCCCCCCCCC(=O)*
PROPERTY_LABEL: solubility

{"COMPOUND": "CCCCCCCCCCCCCCCC(=O)N1CCC[C@H]1C(=O)N1CCC[C@H]1C(=O)NCC(=O)N[C@@H](Cc1ccc(O)cc1)C(=O)O [Compound II] (Palmitoyl-PPGY-OH)", "solubility": "1000 to 5000 µg/mL"}

We next turn to a different compound, shown below.
Check the records and state solubility for CCCCCCCCCCCCCCCC(=O)N1CCC[C@H]1C(=O)N1CCC[C@H]1C(=O)NCC(=O)N[C@@H](Cc1ccc(O)cc1)C(=O)[O-].[Na+] [Compound I] (Palmitoyl-PPGY-OH) > 100000 µg/mL
